# Assayed target: T1, recombinant human CD38 his tagged (extracellular domain) (human, UniProt P28907 43-300)
# T1 construct: also called rhCD38; rhCD38-his; not shown: Histidine tag
# Assay remarks: SPR Biacore affinity, rhCD38-his
pKd: −log10 of the molar value.

>  <Binder>
aCD38-b-348-m2 (antibody, IgG1, V domains shown) VH: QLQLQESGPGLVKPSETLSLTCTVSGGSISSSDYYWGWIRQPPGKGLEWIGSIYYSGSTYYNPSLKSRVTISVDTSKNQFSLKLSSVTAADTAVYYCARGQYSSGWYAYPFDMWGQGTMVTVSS VL: EIVLTQSPGTLSLSPGERATLSCRASQSVRSSYLAWYQQKPGQAPRLLIYGASSRATGIPDRFSGSGSGTDFTLTISRLEPEDFAVYYCQQDSNVYTFGGGTKVEIK

>  <pKd>
8.17

$$$$
>  <Binder>
aCD38-b-348 (human IgG1) (antibody, V domains shown, Human IgG1) VH: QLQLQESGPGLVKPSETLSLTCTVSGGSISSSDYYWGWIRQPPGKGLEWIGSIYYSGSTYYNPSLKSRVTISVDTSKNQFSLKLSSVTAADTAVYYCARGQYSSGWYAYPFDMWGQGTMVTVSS VL: EIVLTQSPGTLSLSPGERATLSCRASQSVRSSYLAWYQQKPGQAPRLLIYGASSRATGIPDRFSGSGSGTDFTLTISRLEPEDFAVYYCQQDGNVYTFGGGTKVEIK

>  <pKd>
8.70

$$$$
>  <Binder>
aCD38-b-348-m1 (antibody, IgG1, V domains shown, also called aCD38-b-348-ml) VH: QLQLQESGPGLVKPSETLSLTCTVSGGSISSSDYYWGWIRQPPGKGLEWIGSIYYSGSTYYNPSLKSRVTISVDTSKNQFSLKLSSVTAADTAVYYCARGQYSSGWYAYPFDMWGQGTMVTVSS VL: EIVLTQSPGTLSLSPGERATLSCRASQSVRSSYLAWYQQKPGQAPRLLIYGASSRATGIPDRFSGSGSGTDFTLTISRLEPEDFAVYYCQQEANVYTFGGGTKVEIK

>  <pKd>
7.20

$$$$
>  <Binder>
aCD38-b-348-m4 (antibody, IgG1, V domains shown) VH: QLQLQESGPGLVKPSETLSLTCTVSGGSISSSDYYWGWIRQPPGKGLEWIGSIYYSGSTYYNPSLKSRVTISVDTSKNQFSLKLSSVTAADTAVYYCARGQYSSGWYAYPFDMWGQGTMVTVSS VL: EIVLTQSPGTLSLSPGERATLSCRASQSVRSSYLAWYQQKPGQAPRLLIYGASSRATGIPDRFSGSGSGTDFTLTISRLEPEDFAVYYCQQEGNVYTFGGGTKVEIK

>  <pKd>
7.57

$$$$
>  <Binder>
aCD38-b-348-m3 (antibody, IgG1, V domains shown) VH: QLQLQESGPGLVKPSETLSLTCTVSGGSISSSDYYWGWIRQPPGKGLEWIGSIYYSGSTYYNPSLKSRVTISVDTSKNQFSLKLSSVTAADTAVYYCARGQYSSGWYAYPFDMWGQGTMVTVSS VL: EIVLTQSPGTLSLSPGERATLSCRASQSVRSSYLAWYQQKPGQAPRLLIYGASSRATGIPDRFSGSGSGTDFTLTISRLEPEDFAVYYCQQDANVYTFGGGTKVEIK

>  <pKd>
7.55

$$$$
